Reference source for all entries: ChEMBL document CHEMBL1127153

Tested on: Rattus norvegicus
Assay: Antiarthritic activity against rat adjuvant model after peroral administration of 25 mg/Kg of compound, activity expressed as %maximum inhibitory effect on arthritis score.
Format: functional
// reported Max inhibitory effect for each item listed
Quantity Name: Max inhibitory effect (%)

# Compound, System Name, Value Measured
rows = [
    ("Cl.Clc1ccc(C2N=C(N3CCOCC3)Cc3ccccc32)cc1 (stereo not given)", "Rattus norvegicus", 5),
    ("CN(C)C1=NC(c2cccc(Cl)c2)c2ccccc2C1.Cl (stereo not given)", "Rattus norvegicus", 53),
    ("COc1ccc2c(c1)CC(N(C)C)=NC2c1ccc(Cl)cc1.Cl (stereo not given)", "Rattus norvegicus", 11),
    ("CN(C)C1=NC(c2ccc(N)cc2)c2ccccc2C1.Cl (stereo not given)", "Rattus norvegicus", 9),
    ("CN(C)C1=NC(c2ccccc2F)c2ccccc2C1.Cl (stereo not given)", "Rattus norvegicus", 37),
    ("CN(C)C1=NC(c2ccc(Cl)cc2)c2ccccc2C1 (stereo not given)", "Rattus norvegicus", 29),
    ("Cl.NC1=NC(c2ccc(Cl)cc2)c2ccccc2C1 (stereo not given)", "Rattus norvegicus", -3),
    ("CN(C)C1=NC(c2ccccc2)c2ccccc2C1.Cl (stereo not given)", "Rattus norvegicus", 13),
    ("Cl.Clc1ccc(C2N=C(NCc3ccccc3)Cc3ccccc32)cc1 (stereo not given)", "Rattus norvegicus", -7),
    ("CN(C)C1=NC(c2ccc(Cl)cc2)c2cc(Cl)ccc2C1.Cl (stereo not given)", "Rattus norvegicus", 54),
]
